Test system: Oligodendrocyte progenitor cells (OPCs)
Assay: In vitro OPC differentiation assay, GPR17 expression (immunocytochemistry)
Conditions: 3 μM (10× concentration, final 0.3 μM); 72 hours; fold change over vehicle
MEASURED METRIC: GPR17 Fold Induction (Over Vehicle; 3 μM)

Below: 3 compounds and their reported GPR17 Fold Induction (Over Vehicle; 3 μM).
Cn1cc(-c2ccc3c(N4CCN(C(=O)OCCc5ccccc5)CC4)cnn3c2)cn1    6.05
CC(C)(C)OC(=O)N1CCN(c2cnn3cc(-c4cn(CCCN5CCOCC5)cn4)ccc23)CC1    9.34
CN(Cc1ccc(Cl)cc1)C(=O)N1CCN(c2cnn3cc(-c4cnn(C)c4)ccc23)CC1    6.13

a. CN(CCCNc1cnn2cc(-c3cnn(C)c3)ccc12)c1ncc(Cc2ccccc2)cn1
b. Cn1cc(-c2ccc3c(N4CCN(C(=O)OCC5CC(F)(F)C5)CC4)cnn3c2)cn1
c. Cn1cc(-c2ccc3c(N4CCN(c5ncc([C@@H](O)[C@@H]6CCCOC6)cn5)CC4)cnn3c2)cn1
d. Cn1cc(-c2ccc3c(N4CCN(C(=O)O[C@@H](c5ccccc5)C(F)(F)F)CC4)cnn3c2)cn1
e. Cc1cn(-c2ccn3c(N4CCCN(C(=O)OC(C)(C)C)CC4)cnc3n2)cn1
Prompt: Rank order required: GPR17 Fold Induction (Over Vehicle; 3 μM), descending. Put the labels in the requested order and write them down.
Response: c, d, b, a, e

====

Target: UniProt P16234
Sequence (P16234 24-1089): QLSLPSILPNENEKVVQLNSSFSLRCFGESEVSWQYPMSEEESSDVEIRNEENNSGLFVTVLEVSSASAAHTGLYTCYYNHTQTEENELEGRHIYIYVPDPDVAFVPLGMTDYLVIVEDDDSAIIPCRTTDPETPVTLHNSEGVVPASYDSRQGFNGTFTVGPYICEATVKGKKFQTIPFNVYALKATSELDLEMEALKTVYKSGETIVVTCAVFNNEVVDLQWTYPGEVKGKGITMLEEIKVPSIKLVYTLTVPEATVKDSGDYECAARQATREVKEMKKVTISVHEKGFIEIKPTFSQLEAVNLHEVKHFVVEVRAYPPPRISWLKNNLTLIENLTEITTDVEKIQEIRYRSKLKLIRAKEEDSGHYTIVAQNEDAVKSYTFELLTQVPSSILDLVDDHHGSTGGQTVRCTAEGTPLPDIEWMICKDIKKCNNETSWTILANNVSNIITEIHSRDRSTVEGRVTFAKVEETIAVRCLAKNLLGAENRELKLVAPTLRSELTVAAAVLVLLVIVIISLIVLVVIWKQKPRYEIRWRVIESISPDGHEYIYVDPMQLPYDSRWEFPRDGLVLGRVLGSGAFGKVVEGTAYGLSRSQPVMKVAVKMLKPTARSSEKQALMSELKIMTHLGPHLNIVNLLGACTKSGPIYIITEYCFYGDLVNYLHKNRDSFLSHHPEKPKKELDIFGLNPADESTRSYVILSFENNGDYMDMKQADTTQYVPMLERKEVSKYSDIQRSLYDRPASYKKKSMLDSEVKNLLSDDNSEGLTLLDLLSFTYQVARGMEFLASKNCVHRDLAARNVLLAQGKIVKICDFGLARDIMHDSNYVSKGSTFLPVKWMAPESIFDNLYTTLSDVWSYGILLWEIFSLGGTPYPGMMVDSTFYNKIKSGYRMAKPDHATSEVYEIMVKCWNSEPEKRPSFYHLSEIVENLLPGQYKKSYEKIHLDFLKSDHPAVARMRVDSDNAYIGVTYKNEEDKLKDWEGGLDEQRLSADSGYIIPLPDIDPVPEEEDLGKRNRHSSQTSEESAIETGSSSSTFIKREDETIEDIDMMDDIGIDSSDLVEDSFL
Assay: PDGFRα kinase enzyme assay (Promega PDGFRα Kinase Enzyme System, ADP-Glo)
Assay type: biochemical
Conditions: 11-point dose response, 10,000 nM to 0.169 nM; 150 uM ATP; BLQ = below limit of quantitation; read-out: IC50 Values on PDGFRα Kinase Inhibition, IC50
pIC50: −log10 of the molar value.
MEASURED METRIC: pIC50

Below: 2 molecules and their reported pIC50.
Cn1cc(-c2cnc3c(N4CCN(c5ncc(C(O)c6ccc(F)cc6)cn5)CC4)cnn3c2)cn1 (centres unmarked) [Compound 74]    6.25
COCCn1cc(-c2cc3ncc(N4CCN(C(=O)OC(C)(C)C)CC4)n3cn2)cn1 [Compound 88]    5.79

I. Cn1cc(-c2cnn3c(N4CCN(S(=O)(=O)NCc5ccc(C(F)(F)F)cc5)CC4)cnc3c2)cn1 [Compound 296]
II. Cn1cc(-c2ccc3c(N4CCN(C(=O)NCc5ccccc5)CC4)cnn3c2)cn1 [Compound 161]
III. C[C@@H](OC(=O)N1CCN(c2cnn3cc(-c4cnn(C)c4)cnc23)CC1)c1ccccc1 [Compound 73]
Prompt: Rank order required: pIC50, descending. Put the labels in the requested order and write them down.
Response: III, I, II
(III: 6.93, I: 6.40, II: 5.68)

====

Tested on: Oligodendrocyte progenitor cells (OPCs)
Experiment: In vitro OPC differentiation assay, MBP expression (immunocytochemistry)
Details: 72 hours of treatment; fold change over vehicle
MEASURED METRIC: MBP Fold Induction (Over vehicle)

C[C@@H](OC(=O)N1CCN(c2cnn3cc(-c4cnn(C)c4)ccc23)CC1)c1ccc2ccccc2c1    18.49
CC(C)Cc1cnc(N2CCN(c3cnn4cc(-c5cnn(C)c5)ccc34)CC2)nc1    4.70

I. Cn1cc(-c2ccc3c(N4CCN(c5nc(Cc6ccccc6)co5)CC4)cnn3c2)cn1
II. CC(c1ccc(F)cc1)c1cnc(N2CCN(c3cnn4cc(-c5cnn(C)c5)ccc34)CC2)nc1 (stereo not shown)
Prompt: Of the pair I and II , name the member with the lesser recorded MBP Fold Induction (Over vehicle). Output the label that corresponds to your choice.
Response: I
(I: 3.72, II: 16.36)

====

Tested on: Oligodendrocyte progenitor cells (OPCs)
Experiment: In vitro OPC differentiation assay, GPR17 expression (immunocytochemistry)
Details: 3 μM (10× concentration, final 0.3 μM); 72 hours; fold change over vehicle
MEASURED METRIC: GPR17 Fold Induction (Over Vehicle; 3 μM)

Below: 5 molecules and their reported GPR17 Fold Induction (Over Vehicle; 3 μM).
CN1CCC(COC(=O)N2CCN(c3cnn4cc(-c5cnn(C)c5)ccc34)CC2)CC1    0.58
Cn1cc(-c2ccc3c(N4CCN(C(=O)O[C@@H]5CCc6cc(Cl)ccc65)CC4)cnn3c2)cn1    1.64
Cn1cc(-c2ccc3c(N4CCN(c5ncc(C(N)c6ccc(F)cc6)cn5)CC4)cnn3c2)cn1 (centres unmarked)    3.04
Cn1cc(-c2ccn3c(N4CCC(C(=O)OC(C)(C)C)C4)cnc3n2)cn1 (centres unmarked)    0.85
CN(CCN(C)c1cnc2nc(-c3cnn(C)c3)ccn12)C(=O)OC(C)(C)C [Compound 108]    0.54

P. COCCn1cc(-c2ccc3c(N4CCN(c5ncc(Cc6ccccc6)cn5)CC4)cnn3c2)cn1
Q. CN(CCN(C)c1cnn2cc(-c3cnn(C)c3)ccc12)c1ncc(Cc2ccccc2)cn1
Prompt: Recorded GPR17 Fold Induction (Over Vehicle; 3 μM) values differ for P and Q ; which one is higher? Output the label that corresponds to your choice.
Response: P
(P: 9.41, Q: 1.36)

====

Tested on: Oligodendrocyte progenitor cells (OPCs)
Assay: In vitro OPC differentiation assay, GPR17 expression (immunocytochemistry)
Details: 3 μM (10× concentration, final 0.3 μM); 72 hours; fold change over vehicle
MEASURED METRIC: GPR17 Fold Induction (Over Vehicle; 3 μM)

CN(Cc1ccccc1)C(=O)C1CCC(c2cnn3cc(-c4cnn(C)c4)ccc23)CC1 (centres unmarked)    3.87
Cn1cc(-c2ccc3c(N4CCN(C(=O)OCc5ccc(Cl)s5)CC4)cnn3c2)cn1    5.65
Cn1cc(-c2ccc3c(N4CCC(c5ncc(Cc6ccccc6)cn5)C4)cnn3c2)cn1 (centres unmarked)    7.08
C[C@@H](OC(=O)N1CCN(c2cnn3cc(-c4cnn(C)c4)ccc23)CC1)c1cccc2ccccc12    5.70

1. Cn1cc(-c2ccc3c(C4CCN(c5ncc(Cc6ccccc6)cn5)C4)cnn3c2)cn1 (centres unmarked)
2. Cc1ccc([C@@H](C)OC(=O)N2CCN(c3cnn4cc(-c5cnn(C)c5)ccc34)CC2)cc1
Prompt: Recorded GPR17 Fold Induction (Over Vehicle; 3 μM) values differ for 1 and 2 ; which one is higher? Output the label that corresponds to your choice.
Response: 2

P. Cc1ccc(CN2CCN(c3cnn4cc(-c5cnn(C)c5)ccc34)CC2)o1
Q. CC1CN(C(=O)OC(C)(C)C)CCN1c1cnn2cc(-c3cnn(C)c3)ccc12 (centres unmarked)
R. Cn1cc(-c2ccc3c(N4CCNCC4)cnn3c2)cn1
S. Cn1cc(-c2ccc3c(N4CCN(C(=O)OC(C)(C)C)CC4)cnn3c2)cn1
T. Cn1cc(-c2ccc3c(N4CCN(c5ccc(C(O)c6ccccc6)nc5)CC4)cnn3c2)cn1 (centres unmarked)
Prompt: In this exercise, place the 5 compounds in ascending sequence of their recorded GPR17 Fold Induction (Over Vehicle; 3 μM). Put the labels in the requested order and write them down.
Response: R, P, Q, S, T
(R: 0.68, P: 1.30, Q: 4.67, S: 10.21, T: 16.27)

====

System: Oligodendrocyte progenitor cells (OPCs)
Test: In vitro OPC differentiation assay, GPR17 expression (immunocytochemistry)
Settings: 3 μM (10× concentration, final 0.3 μM); 72 hours; fold change over vehicle
MEASURED METRIC: GPR17 Fold Induction (Over Vehicle; 3 μM)

Below: 2 molecules and their reported GPR17 Fold Induction (Over Vehicle; 3 μM).
Cn1cc(-c2ccc3c(C4=CCC(C(=O)OCc5ccccc5)CC4)cnn3c2)cn1 (stereo not shown) [Compound 132]    5.85
C[C@@H](OC(=O)N1CCN(c2cnc3nc(-c4cnn(C)c4)ccn23)CC1)c1ccccc1 [Compound 116]    4.31

A. C[C@@H](OC(=O)N1CCN(c2cnc3cc(-c4cnn(C)c4)ncn23)CC1)c1ccccc1 [Compound 115]
B. Cn1cc(-c2ccn3c(N4CCCN(C(=O)NCc5ccc(C(F)(F)F)cc5)CC4)cnc3n2)cn1 [Compound 120]
Prompt: Of the pair A and B , name the member with the lesser recorded GPR17 Fold Induction (Over Vehicle; 3 μM). Output the label that corresponds to your choice.
Response: B

====

Tested on: Oligodendrocyte progenitor cells (OPCs)
Test: In vitro OPC differentiation assay, GPR17 expression (immunocytochemistry)
Details: 3 μM (10× concentration, final 0.3 μM); 72 hours; fold change over vehicle
MEASURED METRIC: GPR17 Fold Induction (Over Vehicle; 3 μM)

CC1CC(COC(=O)N2CCN(c3cnn4cc(-c5cnn(C)c5)ccc34)CC2)C1 (stereo not shown) [Compound 310]    4.86
Cn1cc(-c2ccc3c(N4CCN(c5ncc(CN6CCCCC6)cn5)CC4)cnn3c2)cn1 [Compound 42]    10.21

A. C[C@@H](OC(=O)N1CCN(c2cnn3cc(-c4cnn(C)c4)ccc23)CC1)C1CCCCC1 [Compound 57]
B. C[C@H](c1ccc(Cl)cc1)N(C)C(=O)N1CCN(c2cnn3cc(-c4cnn(C)c4)ccc23)CC1 [Compound 276]
Prompt: Recorded GPR17 Fold Induction (Over Vehicle; 3 μM) values differ for A and B ; which one is higher? Output the label that corresponds to your choice.
Response: A
(A: 5.28, B: 2.11)

A. C[C@H](OC(=O)N1CCN(c2cnn3cc(-c4cnn(C)c4)ccc23)CC1)c1ccccc1 [Compound 34]
B. Cn1cc(-c2ccc3c(N4CCN(C(=O)OCc5ccccc5C#N)CC4)cnn3c2)cn1 [Compound 281]
C. Cn1cc(-c2cc3ncc(N4CCCN(C(=O)OC(C)(C)C)CC4)n3cn2)cn1 [Compound 85]
Prompt: Rank order required: GPR17 Fold Induction (Over Vehicle; 3 μM), descending. Put the labels in the requested order and write them down.
Response: B, A, C

A. Cn1cc(-c2ccc3c(N4CCN(c5ncc(C(O)C6CCOCC6)cn5)CC4)cnn3c2)cn1 (stereo not shown) [Compound 69]
B. Cn1cc(-c2ccc3c(N4CCN(c5nsc(Cc6ccccc6)n5)CC4)cnn3c2)cn1 [Compound 154]
Prompt: Recorded GPR17 Fold Induction (Over Vehicle; 3 μM) values differ for A and B ; which one is higher? Output the label that corresponds to your choice.
Response: B

1. CCC(CC)C(O)c1cnc(N2CCN(c3cnn4cc(-c5cnn(C)c5)ccc34)CC2)nc1 (stereo not shown) [Compound 177]
2. Cn1cc(-c2ccc3c(N4CCN(c5ccc(Cc6ccccc6)cc5)CC4)cnn3c2)cn1 [Compound 150]
3. Cn1cc(-c2ccc3c(N4CCN(c5ncc(CCC(O)c6ccccc6)cn5)CC4)cnn3c2)cn1 (stereo not shown) [Compound 165]
4. CC(C)(C)OC(=O)N1CCN(c2cnn3cc(CCCO)ccc23)CC1 [Compound 204]
Prompt: In this exercise, place the 4 compounds in ascending sequence of their recorded GPR17 Fold Induction (Over Vehicle; 3 μM). Put the labels in the requested order and write them down.
Response: 4, 2, 1, 3

A. Cc1nn(C)c(C)c1-c1ccc2c(N3CCN(C(=O)OC(C)(C)C)CC3)cnn2c1 [Compound 222]
B. Cn1cc(-c2ccn3c(N4CCN(C(=O)NCc5ccc(C(F)(F)F)cc5)CC4)cnc3n2)cn1 [Compound 119]
Prompt: Recorded GPR17 Fold Induction (Over Vehicle; 3 μM) values differ for A and B ; which one is higher? Output the label that corresponds to your choice.
Response: B
(B: 8.04, A: 3.74)
